ASSAY_PROTOCOL: Plasma and brain concentrations after injection (UPLC)
Type: in vivo
CONDITION_SET: female, CD-1, mouse, plasma, sc, 50 mg/kg; read-out: elimination half-life
MEASUREMENT_KIND: half-life (min)
Output spec: scalar in min, unitless text.

Q) Given the molecule CC(C)C[C@H](NC(=O)[C@H](Cc1ccccc1)NC(=O)CNC(=O)CNC(=O)[C@H](Cc1ccc(O)cc1)NC(=O)C(C)(C)C)C(=O)O , write its reported half-life.
A) 8.9

====

ASSAY_PROTOCOL: Plasma and brain concentrations after injection (UPLC)
Format: in vivo
CONDITION_SET: female, CD-1, mouse, brain, sc; 2 h after s.c. injection; read-out: concentration in brain
MEASUREMENT_KIND: tissue level at time at 2 h (ng/g)
Output spec: scalar in ng/g, unitless text.

Q) Given the compound CC(C)C[C@H](NC(=O)[C@H](Cc1ccccc1)NC(=O)CNC(=O)CNC(=O)[C@H](Cc1ccc(O)cc1)NC(=O)C(C)(C)C)C(=O)O , write its reported tissue level at time at 2 h.
A) 200
